# Tgt: serum sample IHUS#B09032311A20 (pre-existing antibodies against ISV)
# Measurement Protocol: ECL drug displacement assay, variant as competitor against labelled SEQ ID NO:1
In this section, each of the binders is paired with its reported ECLU confirmatory assay.

Binder: Example 1C: wildtype (VHH) VHH: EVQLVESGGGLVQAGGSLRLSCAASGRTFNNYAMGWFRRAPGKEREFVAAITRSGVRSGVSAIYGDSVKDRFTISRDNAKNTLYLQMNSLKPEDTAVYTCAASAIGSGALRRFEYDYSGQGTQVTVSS
ECLU confirmatory assay (ECLU): 8680
//
Binder: Example 1C: (A14P, R39Q, K83R, T91Y, Q108L)-QA (VHH) VHH: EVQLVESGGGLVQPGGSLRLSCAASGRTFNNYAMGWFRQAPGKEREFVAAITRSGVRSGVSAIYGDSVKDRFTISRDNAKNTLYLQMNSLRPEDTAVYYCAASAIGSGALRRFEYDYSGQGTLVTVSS
ECLU confirmatory assay (ECLU): 15100
//
Binder: Example 1c: (A14P, R39Q, K83R,T91Y, Q108L) (VHH) VHH: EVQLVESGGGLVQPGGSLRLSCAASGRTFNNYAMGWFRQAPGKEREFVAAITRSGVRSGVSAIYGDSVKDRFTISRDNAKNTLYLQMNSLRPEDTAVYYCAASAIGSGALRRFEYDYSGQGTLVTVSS
ECLU confirmatory assay (ECLU): 570
//
Binder: Example 1C: (A14P, R39Q, K83R, T91Y, Q108L)-3A (VHH) VHH: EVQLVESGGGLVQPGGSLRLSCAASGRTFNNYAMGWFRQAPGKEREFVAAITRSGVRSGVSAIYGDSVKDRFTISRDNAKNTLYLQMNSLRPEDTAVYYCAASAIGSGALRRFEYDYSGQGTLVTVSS
ECLU confirmatory assay (ECLU): 15200
//
Binder: Example 1C: (A14P) (VHH) VHH: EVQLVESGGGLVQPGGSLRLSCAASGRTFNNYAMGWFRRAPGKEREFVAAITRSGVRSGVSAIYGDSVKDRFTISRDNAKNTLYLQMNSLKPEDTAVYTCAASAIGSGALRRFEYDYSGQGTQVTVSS
ECLU confirmatory assay (ECLU): 668
//
Binder: Example 1C: (K83R) (VHH) VHH: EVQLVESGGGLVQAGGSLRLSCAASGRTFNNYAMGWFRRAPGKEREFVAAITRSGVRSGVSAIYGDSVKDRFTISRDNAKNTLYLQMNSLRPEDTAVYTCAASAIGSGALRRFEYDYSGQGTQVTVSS
ECLU confirmatory assay (ECLU): 6910
//
Binder: Example 1C: (A14P, K83R, Q108L) (VHH) VHH: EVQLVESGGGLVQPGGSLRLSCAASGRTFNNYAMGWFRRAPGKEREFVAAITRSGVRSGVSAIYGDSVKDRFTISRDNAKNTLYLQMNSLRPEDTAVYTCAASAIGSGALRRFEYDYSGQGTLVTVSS
ECLU confirmatory assay (ECLU): 628
//
Binder: Example 1C: (Q108L) (VHH) VHH: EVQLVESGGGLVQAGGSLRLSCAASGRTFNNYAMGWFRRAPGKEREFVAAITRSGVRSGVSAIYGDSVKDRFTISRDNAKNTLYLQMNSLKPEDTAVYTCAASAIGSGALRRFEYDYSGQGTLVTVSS
ECLU confirmatory assay (ECLU): 6990
